Sourced from patent US7504393B2

measured.on: serotonin re-uptake (Rattus norvegicus)
Construct: synaptosome prepared from rat whole brains except the cerebellums; from tissue; host or cells: synaptosomes from rat whole brain except the cerebellum
Sequence (P31652 whole entry): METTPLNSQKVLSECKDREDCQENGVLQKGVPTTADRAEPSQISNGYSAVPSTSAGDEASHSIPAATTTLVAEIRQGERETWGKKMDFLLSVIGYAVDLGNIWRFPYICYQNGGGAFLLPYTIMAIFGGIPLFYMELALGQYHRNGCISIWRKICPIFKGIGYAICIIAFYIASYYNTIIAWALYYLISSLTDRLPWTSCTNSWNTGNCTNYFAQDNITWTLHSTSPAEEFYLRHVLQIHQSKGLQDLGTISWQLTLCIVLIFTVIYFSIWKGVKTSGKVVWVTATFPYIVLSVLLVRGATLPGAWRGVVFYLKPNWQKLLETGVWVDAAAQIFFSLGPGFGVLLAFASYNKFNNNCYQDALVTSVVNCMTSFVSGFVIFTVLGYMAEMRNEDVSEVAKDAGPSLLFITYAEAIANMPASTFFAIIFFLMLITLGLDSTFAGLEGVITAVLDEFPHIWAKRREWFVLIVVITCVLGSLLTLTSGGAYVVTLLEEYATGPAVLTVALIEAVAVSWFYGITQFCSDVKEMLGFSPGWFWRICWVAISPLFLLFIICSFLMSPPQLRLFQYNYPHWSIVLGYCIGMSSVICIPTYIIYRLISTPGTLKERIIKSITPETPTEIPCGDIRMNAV
test.details: Serotonin re-uptake inhibitory activity (synaptosome, [3H]5-HT)
Format: biochemical
measurement.context: synaptosome from rat whole brain except cerebellum; [3H]5-HT, 37° C.; read-out: IC50 (nM) Serotonin re-uptake inhibitory activity
Where a name gives a salt, the structure may show the parent alone.
Catalogue of molecules with associated log10 of IC50
reported.endpoint: log10 of IC50 (log10 of the value in nM)

> print(dat)
                                   molecule  reported.endpoint  measured
1  CN(C)C(=O)Oc1ccc(C(CCOc2ccc(Cl)cc2)N(C)C)cc1 (stereo not shown) [Test Compound 41, hydrochloride]      log10 of IC50      2.71
2  CN(C)C(=O)Oc1ccc2c(c1)CCN(C)C2CCOc1ccc([N+](=O)[O-])cc1 (stereo not shown) [Test Compound 187, hydrochloride]      log10 of IC50      2.97
3  CN(C)C(=O)Oc1ccc2c(c1)C=CCN(C)C2CCOc1ccc(F)cc1Cl (stereo not shown) [Test Compound 195, hydrochloride]      log10 of IC50      1.64
4  Cc1cc(OCCC2c3ccc(OC(=O)N(C)C)cc3CCN2C)ccc1Cl (stereo not shown) [Test Compound 188, hydrochloride]      log10 of IC50      2.18
5  CN(C)C(=O)Oc1ccc(C(CCOc2ccc([N+](=O)[O-])cc2Cl)N(C)C)cc1 (stereo not shown) [Test Compound 131, hydrochloride]      log10 of IC50      2.11
6  CNC(CCOc1ccc(Cl)c(F)c1)c1ccc(OC(=O)N(C)C)cc1 (stereo not shown) [Test Compound 55, hydrochloride]      log10 of IC50      1.78
7  CNC(CCOc1cccc(Cl)c1)c1ccc(OC(=O)N(C)C)cc1 (stereo not shown) [Test Compound 38, hydrochloride]      log10 of IC50      2.30
